- PROCEDURE TEXT: NCI Yeast Anticancer Drug Screen. Data for the mec2-1 strain (AID 157)
- CONDITION NOTES: S. cerevisiae mec2-1 strain, at 33.0 µM, active compounds read high
This is part of a sample that, as a whole, favours compounds with a hit. Of some 79,000 tested, about 15% had one in any assay.
Recorded growth inhibition, one value per entry.
Please state the figure in %; there is no need to write the unit.

These solved cases illustrate the format of a correct answer.
CCOP1(=O)C=C(Sc2ccc([N+](=O)[O-])cc2[N+](=O)[O-])C(C)(C)O1 (stereo not given): 41
O=Cc1coc2ccccc2c1=O: 18
Cc1c2cc[n+](CCN3CCCCC3)cc2c(C)c2c1[nH]c1ccc(O)cc12: 15
O=C1c2c(O)cccc2-c2nn(CCNCCO)c3ccc(NCCNCCO)c1c23: 10

Respond only with growth inhibition recorded for COc1ccc(/C=C2\SC(=S)N(C=C3C(=O)NC(=S)NC3=O)C2=O)cc1OC 91

Respond only with growth inhibition recorded for C/C(=N\NC(=S)NNC(=S)N(C)c1ccccc1)c1ccccn1 99
